Data credit: patent US20220073643A1

molecular target: human Claudin18.2 (human); test: cell-based or functional assay
Items are presented alongside their recorded CDC % Relative activity.

binder	reported-endpoint	recorded-result
chimeric 260G9E8 (antibody, human IgG1, kappa, V domains shown, chimeric, human IgG1/kappa constant regions) VH: QADLQQSGAELVRSGASVKMSCKASGYTFASHNMHWVKQTPGQGLEWIGYIYPGNGGTKYNQKFTGKATLTADTSSSTAYMQITSLTSEDSAVYFCARDYYGNSFAYWGQGTLVTVSA VL: DIVMTQSPSSLTEKAGEKVSMRCKSSQSLLNSGNQKNYLTWYQQKPGQPPKLLIYWASTRESGVPDRFTGSGSGTDFTLTISSVQADDLAVYYCQNDYMFPFTFGAGTKLELKR	CDC % Relative activity	684%

Lab note: next binder to report on.
Prompt: # return recorded CDC % Relative activity for entry chimeric 257B1G9 (antibody, human IgG1, kappa, V domains shown, chimeric, human IgG1/kappa constant regions) VH: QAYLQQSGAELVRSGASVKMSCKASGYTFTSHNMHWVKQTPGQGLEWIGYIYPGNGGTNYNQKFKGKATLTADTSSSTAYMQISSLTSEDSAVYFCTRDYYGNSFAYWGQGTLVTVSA VL: DIVMTQSPSSLTERAGERVSMSCKSSQSLFNSGNQKNYLTWYQQKPGQPPKLLIYWASTRESGVPDRFTGSGSGTDFTLTISSVQAEDLAVYYCQNDYRYPFTFGAGTKLELKR
Completion: 642%
